# System: MS2 coat protein
# method-summary: apparent Kd, MS2 coat protein; higher = weaker binding; RNA-MaP array; FMN 200 µM where present
# test-parameters: ligand present: flavin mononucleotide; designed as: OFF switch for flavin mononucleotide
Some sequences, each annotated with its measured apparent Kd.
The reply should consist of the numeric value with the unit placed after it.

Look over these answered cases.
Given the sequence "GGCGCAUUUGUGGCGUAUAGGUCGAAGGAUAUCACGUGCCGCCUAGUACAUGAGGAUCACCCAUGUGAGAAGGUCGAACUUAAC" , what is its reported apparent Kd?
0.0835 µM

Given the sequence "GUCGUGUGAGGAUAUGAUUGUACGGCAGACUAGCGUCUGCUUCAGAAGGCACAUGAGGAUCACCCAUGUUUGUC" , what is its reported apparent Kd?
0.0344 µM

Given the sequence "GGCUCUGCUCGAGGAUAUAGCUGCAUGUAGUGUCCUGAGGCACAUGAGGAUCACCCAUGUGUAGGCUAGAAGGCGACAGAGGCG" , what is its reported apparent Kd?
0.276 µM

---
Given the sequence "GAGCGAAAGCUCAAUGUCGAUAGCAGAAGGACAUGUAAAUACAUGAAAACAUGAGGAUCACCCAUGUAGGAUAUGCUAUCGACU" , what is its reported apparent Kd?
0.0127 µM

Given the sequence "CCGCAAAUGGAGGAUAUCGUAUCGGAUACGAUACGAGAAGGCUAUACAUGAGGAUCACCCAUGUGUCCUAGCGG" , what is its reported apparent Kd?
0.0183 µM

Given the sequence "GUCGUGUGAGGAUAUGGAUCGACGCAGUGACAGUCAGCGACCUAGAAGGCACAUGAGGAUCACCCAUGUAUGUG" , what is its reported apparent Kd?
0.0975 µM

Given the sequence "GGAAAUCAUGUAGGAUAUGCAUGGCGAAGCUACGCAGAAGGACAUGAGGAUCACCCAUGUUAUAGCGUUCGAGAAAGGAUGCAA" , what is its reported apparent Kd?
0.0879 µM

* * *

# System: MS2 coat protein
# method-summary: apparent Kd, MS2 coat protein; higher = weaker binding; RNA-MaP array; tryptophan 2.4 mM where present
# test-parameters: ligand present: tryptophan; designed as: OFF switch for tryptophan
Assign met whenever apparent Kd does not fall below 200 nM; assign not met whenever it does.

// inclusive: apparent Kd at least 200 nM? input: "CUCAUCCACGCGGCCGCCACUAUUUUUAGGUGUGGGUGUGACGUAUUACAUGAGGAUCACCCAUGUAGGACCGGGCGUGGAUGAG"
met

// inclusive: apparent Kd at least 200 nM? input: "UAUUAUCAGUCGGCCGCCACUGACACAUGAGGAUCACCCAUGUAAUUUGGGUUAUAUAGAAAAUACAGGACCGGGACUAAGGCUA"
met

// inclusive: apparent Kd at least 200 nM? input: "UUCGUAUUGUCGGCCGCCACUGCAACAUGAGGAUCACCCAUGUAAGAAUGGUUGUAAAUAUAUUACAGGACCGGGACAAUAGUAA"
not met

// inclusive: apparent Kd at least 200 nM? input: "GUUGUAUACUCGGCCGCCACUGAGAGAGUCAUGUAAACAUGAGGAUCACCCAUGUAAUAUAUAUACAGGACCGGGAGUAUGGUAA"
not met

// inclusive: apparent Kd at least 200 nM? input: "AAUUAUCAGUCGGCCGCCACUGACACAUGAGGAUCACCCAUGUAACUUGGGUUAAAUUUAAUAAACAGGACCGGGACAAAGGCUA"
not met

// inclusive: apparent Kd at least 200 nM? input: "UAUCGUCAGACGGCCGCCACUAGAACAUGAGGAUCACCCAUGUAAGUGGCCGGUCUCCUCAUGACUAGGACCGGGUCUGACGAAU"
not met

// inclusive: apparent Kd at least 200 nM? input: "AAUAAUAAGGCGGCCGCCACUACACAUGAGGAUCACCCAUGUCUCGCGGGCUUGCGUUGGGAAUGUAGGACCGGGCCAAUAAUAA"
not met

// inclusive: apparent Kd at least 200 nM? input: "AAUUUAUGGUUCUUGAUGUAGUAUCUAUUUCGAGGACCGGUACGGCCGCCACUCGUAAAUUACAUGAGGAUCACCCAUGUUAGCU"
not met

From here, focus on the item given below.
// inclusive: apparent Kd at least 200 nM? input: "GAGUAGAGGACGGCCGCCACUGAACAUGAGGAUCACCCAUGUCGUGAUCCGUUACCUAAAGAAGAUAGGACCGGGUCAUGUACUC"
not met
